- System: Lefty1
- METHOD_NOTES: Lefty1 binders on small-molecule microarrays, primary screen, biochemical, small-molecule microarray, 635/667 nm fluorescence (AID 1139)
- TEST_PARAMETERS: small-molecule microarray binding, fluorescence 635/667; higher = more signal
PROPERTY_NAME: composite z-score

Form field composite z-score, entry C[C@H]1CC[C@@H](C(=O)O)N[C@@H]1c1ccc(C#CCN(C)C)cc1 : 0.343

composite z-score recorded for this molecule, CCCNC(=O)OC[C@H]1O[C@H](CCON=C2[C@H]3CCn4c(=O)n(-c5ccccc5)c(=O)n4[C@H]3[C@H](O)[C@@H]3O[C@H]23)C=C[C@@H]1Oc1ccc(OC)cc1 , is 0.502

Looking up COCCOC(=O)N1C(=O)[C@@]2(c3cc(C#Cc4ccc(OC)cc4)ccc31)[C@H](c1ccc(O)cc1)N1[C@H](c3ccccc3)[C@H](c3ccccc3)OC(=O)[C@H]1[C@@H]2C(N)=O , I see its composite z-score listed as 0.728

The reported value for CC(CCN1CCc2nc(-c3ccccc3)c(-c3ccccc3)cc2C1)=NO[C@@H](C)c1cn([C@H](CO)Cc2ccccc2)nn1 in terms of composite z-score is 0.342

Entry under test: C=CCNC(=O)[C@H]1[C@@H]2C(=O)O[C@@H](c3ccccc3)[C@@H](c3ccccc3)N2[C@@H](c2ccc(O)cc2)[C@]12C(=O)N(C(=O)OCCOC)c1ccc(C#CC3=CCCCC3)cc12 . Its composite z-score was 0.484

The molecule CCCC[C@@H](O)C1=C(C)C[C@H]2C(=O)N(Cc3ccccc3)C(=O)[C@H]2[C@H]1CO showed composite z-score equal to 0.492

Lookup result for CC(CCN1CCCCc2nc(C)c(C)cc21)=NOC(C)CN1CCCc2nc(C)c(C)cc21 (stereo not given) ; measured composite z-score: 1.45

composite z-score reported for this molecule C[C@@H](c1ccccc1)N1C(=O)[C@H]2[C@H]3[C@H](O)[C@H](O)CC(=NNC(=O)OCc4ccccc4)[C@H]3CC[C@H]2C1=O : -0.211

// field: composite z-score; key: O=C1C[C@@H](O)[C@@H](O)[C@@H]2[C@@H]3C(=O)N(C4CCCCC4)C(=O)[C@@H]3CC[C@H]12 ; value = 0.422

Entry under test: COc1ccc([Si](C)(C)[C@@H]2[C@@H](CC(=O)N3CCC[C@H]3CO)O[C@]3(C(=O)N(Cc4cccc(N5CCC5=O)c4)c4ccccc43)[C@H]2C)cc1 . Its composite z-score was 0.917

The molecule COC(=O)C1=CCC(c2cccc(Cl)c2)O1 (stereo not given) showed composite z-score equal to -0.319

Reported composite z-score of COc1cccc([C@@H]2Oc3ccc(Br)cc3C(=O)[C@H]2O)c1 : 0.732

Memo: COc1ccc(COC(=O)NN=C2C[C@@H](O)[C@@H](O)[C@@H]3[C@@H]4C(=O)N(c5ccc(F)cc5F)C(=O)[C@@H]4CC[C@@H]23)cc1 , reported composite z-score: -0.291

composite z-score in this record for CC(C)C[C@@H]1NC(=O)[C@H]2C[C@@H](C(=O)O)[C@@H](c3ccc(O)cc3)N2C1=O : 0.874

// sample O=C1CCCC2OC12C(O)CCc1ccccc1 (stereo not given) , its composite z-score was 0.279
